Assay: binders of probe aHhip on microarray, primary screen, stem cell growth factor project, biochemical, small-molecule microarray, fluorescence 635/667 (AID 1087);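 further: score merges spot fluorescence at 667nm with spot signal to noise ratio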
Settings: higher = more signal
readout.type: composite z-score
Answers are plain numbers.

{"columns": ["compound", "composite z-score"],
 "data": [
  ["O=C1[C@H]2[C@H]3[C@H](O)[C@H](O)CC(=NOC[C@@H](O)COCc4ccco4)[C@@H]3CC[C@H]2C(=O)N1C1CCCCC1", 0.235],
  ["CCOC(=O)[C@H](Cc1ccccc1)NC(=O)CCC1CC(OC(=O)NCc2cccc3ccccc23)CC2(CCCC(COC(=O)NCCOc3ccccc3)O2)O1 (some centres undefined)", 0.204],
  ["COC(=O)[C@H](C)NC(=O)CCC1CC(OC(=O)NCc2cccc3ccccc23)CC2(CCCC(COC(=O)NCCCN3CCCC3=O)O2)O1 (some centres undefined)", 0.208]
]}

Input CCOC(=O)[C@H](CC(C)C)NC(=O)CCC1CC(OC(=O)NCc2ccc3c(c2)OCO3)CC2(CCCC(COC(=O)NCCOC)O2)O1 (some centres undefined) . Output composite z-score: 0.0826

----------
Assay: modulators of S6 phosphorylation in cells, primary screen, cell-based, A549, cytoblot, luminescence, serum-stimulated (AID 1158);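 further: serum-stimulated A549 lung adenocarcinoma cells; signal is phosphorylated S6 detected by cytoblot immunostaining with HRP secondary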
Details: A549 phospho-S6 cytoblot, 5 h, higher = more signal
readout.type: z-score
Answers are plain numbers.

Worked cases, answers included:
{"columns": ["compound", "readout.type", "experimental.result"],
 "data": [
  ["COC(=O)CC=C[C@@H](C)[C@@H](C=NOC(C)CN1CCCCc2nc(C)c(C)cc21)NS(=O)(=O)c1ccc(C)cc1 (some centres not stated)", "z-score", -0.134],
  ["O=C1[C@H]2[C@H]3[C@H](O)[C@H](O)CC(=NO[C@@H]4O[C@H](CO)[C@@H](O)[C@H](O)[C@H]4O)[C@@H]3CC[C@H]2C(=O)N1C[C@@H]1CCCO1", "z-score", 0.054],
  ["C#CCCCON=C1C[C@@H](O)[C@@H](O)[C@@H]2[C@@H]3C(=O)N(CC)C(=O)[C@@H]3CC[C@H]12", "z-score", -0.403],
  ["CC(C)=CCCC(C)=CCON=C1C[C@@H](O)[C@@H](O)[C@@H]2[C@@H]3C(=O)N(Cc4ccc5c(c4)OCO5)C(=O)[C@@H]3CC[C@@H]12", "z-score", -0.274],
  ["CO[C@@H]1COC(=O)CC=C[C@H](C)[C@H](OC)COC(=O)[C@@H]2CCCN2C(=O)CC=C[C@H]1C", "z-score", -0.0291]
]}

Respectfully, I request z-score for each entry included below.
1. CCOC(=O)[C@H](Cc1ccccc1)NC(=O)CCC1CC(OC(=O)NCc2ccc3c(c2)OCO3)CC2(CCCC(COC(=O)NCCCN3CCCC3=O)O2)O1 (some centres not stated)
2. C[C@H]1CC[C@@H](C(=O)O)N[C@@H]1c1ccc(C#Cc2ccccc2)cc1

0.125
-0.895

----------
Molecular target: NADPH oxidase 4 (Homo sapiens)
Assay: NOX4-dependent H2O2 signal modulators, primary screen, NOX inhibitor project, cell-based, HEK293-NOX4, tetracycline-induced, Amplex Red fluorescence (AID 1160)
Conditions: 45 min, higher = more signal, called active from +8 up or from −8 down
Decision: z-score compared against -0.07; not below it gives yes, below it gives no.

{"columns": ["compound", "classification"],
 "data": [
  ["CC(=O)OC[C@H]1O[C@@H](ON=C(C)C)[C@H](OC(C)=O)[C@@H](OC(C)=O)[C@@H]1OC(C)=O", "yes"],
  ["COC(=O)[C@H](C)NC(=O)CCC1CC(OC(=O)NCCc2ccc(F)cc2)CC2(CCCC(COC(=O)NCc3ccccc3)O2)O1 (stereo not given in full)", "yes"],
  ["C#CCCCON=C1C[C@@H](O)[C@@H](O)[C@@H]2[C@@H]3C(=O)N(C[C@@H]4CCCO4)C(=O)[C@@H]3CC[C@@H]12", "yes"],
  ["COC(=O)CC=C[C@@H](C)[C@@H](C=NOC(C)CN1CCCc2nc(C)c(C)cc21)NS(=O)(=O)c1ccc(C)cc1 (stereo not given in full)", "yes"],
  ["CCc1cc2c(nc1CC)CCN(CCC(C)=NOC[C@@H](C)[C@H](OCc1ccccc1)C(C)C)C2", "no"],
  ["O=C1C[C@@H](O)[C@@H](O)[C@@H]2[C@@H]3C(=O)N(C4CCCCC4)C(=O)[C@@H]3CC[C@@H]12", "yes"],
  ["CCN1C(=O)[C@H]2[C@H]3[C@H](O)[C@H](O)CC(=NOCC[C@@H]4C=C[C@H](OC(C)=O)[C@@H](COC(C)=O)O4)[C@@H]3CC[C@H]2C1=O", "yes"],
  ["CCCNC(=O)OC[C@H]1O[C@H](CCON=C[C@@H](NS(=O)(=O)c2ccc(C)cc2)[C@H](C)C=CCC(=O)OC)C=C[C@@H]1Oc1ccc(OC)cc1", "yes"],
  ["CCCNC(=O)OC[C@H]1O[C@H](CCON=C2C[C@@H](O)[C@@H](O)[C@@H]3[C@@H]4C(=O)N(CC)C(=O)[C@@H]4CC[C@@H]23)C=C[C@@H]1Oc1ccc(OC)cc1", "yes"],
  ["C=CC[C@@H]1C=CC(ON=C(C)C)[C@@H](CO)O1 (stereo not given in full)", "no"]
]}

Field: next compound
Check the entry O=C1[C@H]2[C@H]3[C@H](O)[C@H](O)CC(=NOC[C@@H](O)COCc4ccco4)[C@@H]3CC[C@H]2C(=O)N1Cc1ccccc1 : does z-score equal or exceed -0.07?
no
